This collection of values is drawn from patent US6465491B2.

Structures can show the parent of a compound that is named as a salt.
Would you kindly list melting point for each of these compounds?

For this compound ( Nc1cccc(-c2ccc(CCN3CCN(CCc4ccccc4)CC3)cc2)n1 ), measured melting point is 111 to 113 °C

For this compound ( Nc1cccc(-c2ccc(CCN3CCC(C(c4ccccc4)c4ccccc4)CC3)cc2)n1 (as salt: hydrochloride) ), measured melting point is 175 °C (dec.)

For this compound ( Nc1cccc(-c2ccc(CCN3CCN(c4nc(-c5ccccc5)cs4)CC3)cc2)n1 ), measured melting point is 158 to 161 °C

For this compound ( Nc1cccc(-c2ccc(CCNC3CC4COCC(C3)N4)cc2)n1 (centres unmarked) (as salt: hydrochloride) [104] ), measured melting point is 100 °C (dec.)

For this compound ( Nc1cccc(-c2ccc(CCN3CCC(N)(C(=O)NCc4ccccc4)CC3)cc2)n1 (as salt: hydrochloride) ), measured melting point is > 240 °C (dec.)

For this compound ( Nc1cccc(-c2ccc(CCNC3CC4CCC(C3)N4C(=O)Cc3ccc(F)cc3)cc2)n1 (centres unmarked) (as salt: hydrochloride) ), measured melting point is 170 °C (dec.)

For this compound ( Nc1cccc(-c2ccc(CCN3CCc4ccccc4C3)cc2)n1 ), measured melting point is 130 to 132 °C

For this compound ( Nc1cccc(-c2ccc(CCNC3CC4CCC(C3)N4Cc3ccc(F)cc3)cc2)n1 (centres unmarked) (as salt: hydrochloride) ), measured melting point is 190 °C (dec.)

For this compound ( Nc1cccc(-c2ccc(CCNC3CC4CCC(C3)N4Cc3ccccc3)cc2)n1 (centres unmarked) (as salt: hydrochloride) ), measured melting point is 260 °C (dec.)

For this compound ( Nc1cccc(-c2ccc(CCN3CCN(C(=O)c4ccco4)CC3)cc2)n1 ), measured melting point is 152 to 154 °C

For this compound ( Nc1cccc(-c2ccc(CCN3CC4C(C3)C4NCCc3ccccc3)cc2)n1 (centres unmarked) (as salt: hydrochloride) ), measured melting point is 165 °C (dec.)

For this compound ( Nc1cccc(-c2ccc(CCN3CCN(C(=O)COc4ccccc4)CC3)cc2)n1 ), measured melting point is 127 to 130 °C

For this compound ( Nc1cccc(-c2ccc(CCN3CCN(C(=O)NCc4ccccc4)CC3)cc2)n1 ), measured melting point is 172 to 181 °C

For this compound ( CC(=O)N1CCN(CCc2ccc(-c3cccc(N)n3)cc2)CC1 ), measured melting point is 201 to 203 °C

For this compound ( Nc1cccc(-c2ccc(CN3CC4C(N)C4C3)cc2)n1 (centres unmarked) (as salt: hydrochloride) ), measured melting point is 189 to 192 °C (dec.)

For this compound ( Nc1cccc(-c2ccc(CCN3CCCC(N)C3)cc2)n1 (centres unmarked) (as salt: hydrochloride) ), measured melting point is 150 °C (dec.)

For this compound ( Nc1cccc(-c2ccc(CCN(Cc3ccncc3)Cc3ccncc3)cc2)n1 (as salt: hydrochloride) ), measured melting point is 150 to 163 °C (dec.)

For this compound ( Nc1cccc(-c2ccc(CCN3CCN(C(c4ccccc4)c4ccccc4)CC3)cc2)n1 (as salt: hydrochloride) ), measured melting point is 170 °C (dec.)

For this compound ( Nc1cccc(-c2ccc(CCNC3CCc4ccccc4C3)cc2)n1 (centres unmarked) (as salt: hydrochloride) ), measured melting point is 320 to 322 °C

For this compound ( Nc1cccc(-c2ccc(CCNC3CC4COCC(C3)N4)cc2)n1 (centres unmarked) (as salt: hydrochloride) [107] ), measured melting point is 170 °C (dec.)

For this compound ( Nc1cccc(-c2ccc(CNC3Cc4ccccc4C3)cc2)n1 (as salt: hydrochloride) ), measured melting point is 185 to 187 °C

For this compound ( Nc1cccc(-c2ccc(CCN3CCC(NC(=O)NCc4ccccc4)C3)cc2)n1 (centres unmarked) (as salt: hydrochloride) ), measured melting point is 90 °C (dec.)

For this compound ( Nc1cccc(-c2ccc(CCN3CCC4(CC3)NC(=O)N(Cc3ccccc3)C4=O)cc2)n1 (as salt: hydrochloride) ), measured melting point is 190 °C (dec.)
